Numbers sourced from paper PMC4411306.

# ASSAY_TARGET: the molecule itself
# ASSAY_NAME: cross-linking; detergent-free membrane fraction of sho1Δ cells expressing a Cys mutant of HA-Sho1*; 0.2 mM bifunctional thiol crosslinker (o-PDM, p-PDM or BMH), 20 min, 25 °C; SDS–PAGE, anti-HA blot
EXPERIMENTAL_ENDPOINT: stoichiometry N
API doc: respond with a numeric literal and nothing else, no unit.

## Input Which stoichiometry N reading was recorded for the protein HA-Sho1* T66C T112C (natural protein, Saccharomyces cerevisiae, UniProt P40073 1-367, looked up, Sho1, S. cerevisiae, Cys-less (C78S C85S) with Cys in TM2 and TM3; also called T/C T/C; source: S. cerevisiae KT079 (sho1Δ), GAL1 promoter, in membrane fraction; not shown: HA, N-terminal, kept) MSISSKIRPTPRKPSRMATDHSFKMKKFYADPFAISSISLAIVSWVIAIGGSISSASTNESFPRFCWWGIVYQFLIISSLMLFYSFDLVDHYRIFITTSIAVAFVYNTNSACNLVYADGPKKAAASAGVILLSIINLIWILYYGGDNASPTNRWIDSFSIKGIRPSPLENSLHRARRRGNRNTTPYQNNVYNDAIRDSGYATQFDGYPQQQPSHTNYVSSTALAGFENTQPNTSEAVNLHLNTLQQRINSASNAKETNDNSNNQTNTNIGNTFDTDFSNGNTETTMGDTLGLYSDIGDDNFIYKAKALYPYDADDDDAYEISFEQNEILQVSDIEGRWWKARRANGETGIIPSNYVQLIDGPEEMHR ?
## Output 3
